Provenance of the data: the RNAGym collection of RNA variant scans (doi:10.1126/science.aae0568)

B1: tRNA (parent)
chain: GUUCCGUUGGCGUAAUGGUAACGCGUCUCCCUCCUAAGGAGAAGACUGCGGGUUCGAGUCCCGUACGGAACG

# Variants of: B1
# Experimental protocol: yeast fitness relative to wild type (ratio to wild type); higher = fitter; tRNA-Arg(CCU), competitive growth, 37 C, YPD
This sample holds only a part of the variants without activity.
Give Satisfied when the value for yeast fitness is at least 0.6. Give Not satisfied when it is less.

Please review the following examples before continuing.
{"Biopolymer sequence": "GUUCCGUUGGUGUAAUGGUAACGCGUCCCCCUCCUAAGGAGAACACUGCGGGUUCGAGUCCCGUACGGAACG", "Assigned category": "Not satisfied"}
{"Biopolymer sequence": "GUUCCGUUGGCGUAAUGGUAACGCGUCUCCCUCCUAAGGAGAAGACUGCGGGUUCGAGUCCCGUCCGGAACG", "Assigned category": "Satisfied"}

Lookup: Quick check, yeast fitness >= 0.6? GUUCCGUCGGCGUAACGGUAACGCGUCUCCCUCCUAAGGAGAAGACUGCGGGUUCGAGUCCCGUGCGGAACG
Found: Satisfied

Lookup: Quick check, yeast fitness >= 0.6? GUUCCGAUCGCGUAAUCGUAACGCGUCUCCCUCCUAAGGAGAAGACUGCGGGUUCGAGUCUGGUCCGGAACG
Found: Not satisfied

Lookup: Quick check, yeast fitness >= 0.6? GUUCCGUUGGCGUAAUGGUAACGCGUCUCCCUCCUAAGGAGGAGACUGCGGGUGCGAGUCCCGUACGGAACG
Found: Not satisfied

Lookup: Quick check, yeast fitness >= 0.6? GUGCCGUUGGCGUAAUGGUAACGCGUCUCGCUCCUAAGGAGAAGACUGUGGGUUCGAGUCCCGUACGGAACG
Found: Not satisfied

Lookup: Quick check, yeast fitness >= 0.6? GGUCCGUUGGCGUAAUGGUAACGCGUCUCCCUCCUAAGGAGAAGACUGCGGGUUCGAGUCCCGUACGGAGCG
Found: Satisfied

Lookup: Quick check, yeast fitness >= 0.6? GUUCCGUCGGUGUAAUGGUAACGCGUCUCCCUCCUAAGGAGAAGACUGCGGGUUCGAGUCCCGUACGGAACG
Found: Satisfied

Lookup: Quick check, yeast fitness >= 0.6? GUUCCGUUGGCGUAAUAGUAACGCGUCUCCCUCCUACGGAGAAGACUGCGGGUUCGAAUCCCGUACGGAACG
Found: Not satisfied

Lookup: Quick check, yeast fitness >= 0.6? GUUCCGUUGGCGUAAUGGUAAUGCGUCUUCCUCCUAAGGAAAAGACUGCGGGUUUGAGUCACGUACGGAACG
Found: Not satisfied

Lookup: Quick check, yeast fitness >= 0.6? GUUCCGUUGGCGUAAUGGUAACGCGUCUGCCUCCUAAGGAGAAGACUGCGGCUUCGUGUCCCGUGCGGAACG
Found: Not satisfied
